Where these numbers come from: paper PMC10786891

Give Kd for every item shown.
Biological target: T1, EsCas13d, nuclease-dead (Eubacterium siraeum, UniProt B0MS50, R295A;H300A;R849A;H854A)
T1 sequence: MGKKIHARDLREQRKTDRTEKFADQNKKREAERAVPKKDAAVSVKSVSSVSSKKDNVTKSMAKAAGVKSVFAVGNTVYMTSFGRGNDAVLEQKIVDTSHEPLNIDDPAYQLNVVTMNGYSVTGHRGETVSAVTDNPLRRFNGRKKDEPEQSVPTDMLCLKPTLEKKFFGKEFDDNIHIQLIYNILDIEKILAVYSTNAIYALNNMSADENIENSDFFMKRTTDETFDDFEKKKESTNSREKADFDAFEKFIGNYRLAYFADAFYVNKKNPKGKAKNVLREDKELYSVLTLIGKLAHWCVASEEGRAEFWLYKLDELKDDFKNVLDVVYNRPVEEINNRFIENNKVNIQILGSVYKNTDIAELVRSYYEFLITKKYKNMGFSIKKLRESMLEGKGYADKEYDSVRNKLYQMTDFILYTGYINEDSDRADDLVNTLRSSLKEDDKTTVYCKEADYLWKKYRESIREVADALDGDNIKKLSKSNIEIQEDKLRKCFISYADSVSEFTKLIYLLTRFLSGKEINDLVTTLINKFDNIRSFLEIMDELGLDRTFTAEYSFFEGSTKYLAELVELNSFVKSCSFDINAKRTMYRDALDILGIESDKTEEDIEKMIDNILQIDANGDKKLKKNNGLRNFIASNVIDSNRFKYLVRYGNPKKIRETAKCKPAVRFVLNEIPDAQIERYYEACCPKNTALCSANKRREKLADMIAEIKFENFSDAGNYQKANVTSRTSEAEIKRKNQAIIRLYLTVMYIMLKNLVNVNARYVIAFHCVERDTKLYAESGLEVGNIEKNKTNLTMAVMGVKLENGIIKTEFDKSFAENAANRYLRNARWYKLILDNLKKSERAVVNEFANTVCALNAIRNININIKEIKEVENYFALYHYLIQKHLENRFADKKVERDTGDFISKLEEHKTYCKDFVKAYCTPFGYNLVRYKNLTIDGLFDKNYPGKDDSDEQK
Assay: crRNA (strand 1, pre-loaded); Mg2+; 40 mM Tris-HCl pH 7.5, 150 mM NaCl, 6 mM MgCl2, 1 mM DTT, 0.1% Tween-20, 0.2 mg/ml BSA; 25 C; 10 min per concentration, then washed
Conditions: tags: His6-TwinStrep-SUMO cleaved; N-terminal SNAP kept (SNAP-Surface 488); label: 3' end held by stalled T7 RNA polymerase

Input target 3 complement block 4-8 (mixed) RNA 1: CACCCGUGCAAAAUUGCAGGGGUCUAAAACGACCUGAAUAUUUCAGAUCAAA RNA 2: GGGAAUGGAUCCACAUCUACGAAUUCGUUUUUGAUCUGAAAUAAAGUCGUCUGCAGAUCGGAAGAGCACACGU . Output Kd: 51.5 nM

Input target 1 insU 3' of 13,insC 3' of 9 (mixed) RNA 1: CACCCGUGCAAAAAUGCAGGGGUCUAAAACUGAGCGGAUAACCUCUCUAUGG RNA 2: GGGAAUGGAUCCACAUCUACGAAUUCGUACCAUAGAGAGUGUUACUCCGCUCACCGAGAUCGGAAGAGCACACGU . Output Kd: 18.8 nM

Input target 1 insC 3' of 8,insU 3' of 4 (mixed) RNA 1: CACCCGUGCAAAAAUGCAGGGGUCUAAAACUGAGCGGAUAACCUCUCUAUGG RNA 2: GGGAAUGGAUCCACAUCUACGAAUUCGUACCAUAGAGAGGUUAUCCCGCUUCACCGAGAUCGGAAGAGCACACGU . Output Kd: 12.2 nM

Input target 1 C2A,C6G (mixed) RNA 1: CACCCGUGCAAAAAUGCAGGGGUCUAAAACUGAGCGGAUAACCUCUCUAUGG RNA 2: GGGAAUGGAUCCACAUCUACGAAUUCGUACCAUAGAGAGGUUAUCGGCUAACCGAGAUCGGAAGAGCACACGU . Output Kd: 6.03 nM

Input target 1 MT 5'PFS GUC 3'PFS UAU (mixed) RNA 1: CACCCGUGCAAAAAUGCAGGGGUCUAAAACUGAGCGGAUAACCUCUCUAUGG RNA 2: GGGAAUGGAUCCACAUCUACGAAUUCGUCCCAUAGAGAGGUUAUCCGCUCAUAUAGAUCGGAAGAGCACACGU . Output Kd: 16.1 nM

Input target 1 insA 3' of 13,insU 3' of 13 (mixed) RNA 1: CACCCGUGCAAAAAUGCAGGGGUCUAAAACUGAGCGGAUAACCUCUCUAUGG RNA 2: GGGAAUGGAUCCACAUCUACGAAUUCGUACCAUAGAGAGAUGUUAUCCGCUCACCGAGAUCGGAAGAGCACACGU . Output Kd: 14.2 nM

Input target 3 insU 3' of 14,insA 3' of 3 (mixed) RNA 1: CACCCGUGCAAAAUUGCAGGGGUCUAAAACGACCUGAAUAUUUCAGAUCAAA RNA 2: GGGAAUGGAUCCACAUCUACGAAUUCGUUUUUGAUCUGUAAAUAUUCAGGAUCUGCAGAUCGGAAGAGCACACGU . Output Kd: ~100 nM

Input target 1 complement block 8-11 (mixed) RNA 1: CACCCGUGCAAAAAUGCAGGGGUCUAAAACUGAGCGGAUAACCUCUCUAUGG RNA 2: GGGAAUGGAUCCACAUCUACGAAUUCGUACCAUAGAGAGGAAUACCGCUCACCGAGAUCGGAAGAGCACACGU . Output Kd: 18.2 nM
